Data origin, for the record: ChEMBL document CHEMBL3988442

# Tested on: Mycobacterium tuberculosis
# test.details: Cornell M. t heat shock assay; note: in the data most compounds retested in dose-response had high values
# Assay type: functional, organism-based
# Parameters: dose or concentration left out as unconfirmed
Out of some 69,000 compounds screened, about 950 (1.4%) showed an effect of 50% or more. Shown is part of a subset that was picked to be rich in strong results.
property: Percent Effect (%)
Give the quantity in %, number only.

These solved cases illustrate the format of a correct answer.
| compound | numeric.result |
| --- | --- |
| Cc1cc(C)n(CC2CCCN2CCS(=O)(=O)c2ccccc2)n1 (stereo not given) | 25.73 |
| Cc1nc(CN2CCc3cc(C(=O)O)c(N(C)C)nc3CC2)cs1.O=C(O)C(F)(F)F.O=C(O)C(F)(F)F | 3.488 |
| Cc1cc(C)n(CC2CCCN2Cc2ncc(C(C)(C)C)o2)n1 (stereo not given) | 52.86 |
| O=C(NCc1cccnc1)N1CCc2ncnc(NC3CC3)c2CC1.O=C(O)C(F)(F)F | -0.2594 |
| Cc1nc(C)n(CC2CCCCN2Cc2ncc(C(C)(C)C)o2)n1 (stereo not given) | -15.1 |
| Cc1nc(C)n(CC2CCCN2Cc2nc3ccccc3nc2C)n1 (stereo not given) | -3.804 |
| COc1cc(N2C[C@@H]3COC[C@]3(COCc3cccc(C)n3)C2)ncn1.O=C(O)C(F)(F)F.O=C(O)C(F)(F)F | 1.772 |
| Cn1cc(CN2CCCC23CCN(C(=O)c2ccccc2)CC3)cn1.O=C(O)C(F)(F)F | -27.87 |

(Q) Please look up its Percent Effect: "Cl.O=C(Nc1nc2c(s1)CNCC2)NC1CCCC1"
(A) 102.9

(Q) # iterate: Cc1nc(C)n(CC2CCCN2Cc2cn3ccsc3n2)n1 (stereo not given)
(A) 52.44

----------
Listing of recorded Percent Effect by entry.
# System: Mycobacterium tuberculosis
# test.details: Cornell M. t heat shock assay; note: in the data most compounds retested in dose-response had high values
# Format: functional, organism-based
# Parameters: dose or concentration left out as unconfirmed
Screen size: about 69,000 compounds; about 950 (1.4%) showed an effect of 50% or more. The full list was thinned out, with strong results kept by preference.
Write your answer as a measured quantity: the number, then the unit.

Consider the worked cases shown below.
| molecule | study.target | result |
| --- | --- | --- |
| CN(C)CCOCC1CN(Cc2ccncc2)Cc2nnn(C)c21.O=C(O)C(F)(F)F.O=C(O)C(F)(F)F.O=C(O)C(F)(F)F (centres undefined) | Mycobacterium tuberculosis | -16.03% |
| Cc1ccc(C(=O)N2CCC3(CC2)CC(c2cnn(C)c2)CO3)cn1.O=C(O)C(F)(F)F (centres undefined) | Mycobacterium tuberculosis | -3.038% |
| CC(C)CS(=O)(=O)N1C[C@H]2C[C@H](C(=O)N(C)C)[C@@H](C1)O2 | Mycobacterium tuberculosis | 1.328% |
| Cc1nc(CN2CCC23CCN(Cc2ccoc2)CC3)cs1 | Mycobacterium tuberculosis | 94.23% |
| Cc1nc(CN2CCC23CCN(Cc2ccco2)CC3)cs1 | Mycobacterium tuberculosis | 77.77% |

(Q) Query (molecule): "CC1=N[C@@]2(CC[C@@H]3CN(Cc4ccc(C)cc4)C[C@@H]32)C(=O)N1CC1CC1.O=C(O)C(F)(F)F" ; field requested: Percent Effect
(A) 0.8614%

(Q) Entry "Cc1nc(CN2C(=O)CCC23CCN(Cc2ccco2)CC3)cs1" please
(A) 5.099%

(Q) Request: Cn1cc(C2CC(=O)NC23CCN(Cc2cccc(F)c2)CC3)cn1.O=C(O)C(F)(F)F (centres undefined)
(A) -23.11%

(Q) Quick one: "Cc1nc(CN2CCC3(C2)CN(Cc2ccco2)C3)cs1"
(A) 18.48%
